Where do these numbers come from? They come from paper PMC10683023.

Molecular target: OATP1C1 (Homo sapiens, UniProt Q9NYB5)
Construct: human U-87MG cells that expressed OATP1C1, but not other OATPs; endogenous in cells; host or cells: U-87MG human glioma cells
Sequence (Q9NYB5 whole entry): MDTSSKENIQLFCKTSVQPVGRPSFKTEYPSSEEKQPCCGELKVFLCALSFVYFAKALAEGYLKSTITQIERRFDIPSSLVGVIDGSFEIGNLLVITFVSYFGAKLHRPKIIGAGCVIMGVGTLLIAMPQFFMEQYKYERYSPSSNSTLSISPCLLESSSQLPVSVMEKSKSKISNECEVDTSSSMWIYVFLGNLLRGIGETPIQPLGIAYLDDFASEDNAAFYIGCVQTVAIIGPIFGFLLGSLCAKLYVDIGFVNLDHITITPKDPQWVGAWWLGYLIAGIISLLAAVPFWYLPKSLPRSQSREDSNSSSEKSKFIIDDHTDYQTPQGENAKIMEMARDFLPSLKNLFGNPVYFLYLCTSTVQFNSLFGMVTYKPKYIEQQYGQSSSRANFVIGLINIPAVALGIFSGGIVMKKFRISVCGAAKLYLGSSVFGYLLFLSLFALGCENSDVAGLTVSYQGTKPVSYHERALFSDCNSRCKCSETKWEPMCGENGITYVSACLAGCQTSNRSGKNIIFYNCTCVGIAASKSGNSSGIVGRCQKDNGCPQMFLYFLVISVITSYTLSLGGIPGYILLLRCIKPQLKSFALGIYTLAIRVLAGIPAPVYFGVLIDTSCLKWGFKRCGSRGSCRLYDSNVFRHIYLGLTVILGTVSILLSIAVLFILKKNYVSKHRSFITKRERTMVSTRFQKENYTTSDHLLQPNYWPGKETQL
Assay: Competitive uptake into U-87MG cells in the presence of OATP1C1 inhibitors diclofenac and flufenamic acid
Format: cell-based
Details: human, pH 7.4, with flufenamic acid (FFA) 100 μM, 100 μM prodrug, 100 μM flufenamic acid, read-out: Inhibition of cellular uptake by FFA
Quantity Measured: inhibition at 30 min, 100 μM

So what inhibition at 30 min, 100 μM did CC(C(=O)Oc1c(I)cc(Oc2c(I)cc(C[C@H](N)C(=O)O)cc2I)cc1I)c1cccc(C(=O)c2ccccc2)c1 (mixture of isomers) [Prodrug 2] get with OATP1C1 (Homo sapiens, UniProt Q9NYB5)?
~42%

----------
Each record here notes measured Km.
Tested on: mouse primary astrocytes
Experiment: Concentration-dependent cellular uptake into mouse primary astrocytes
Type: cell-based
Conditions: 5–400 μM, 30 min, 37 °C
Your answer is read as µM, so omit the unit and give the number.

Molecule	Quantity Measured	Measured Result
C[C@]12CC[C@@H]3c4ccc(OS(=O)(=O)O)cc4CC[C@H]3[C@@H]1CCC2=O [ES, [6,7-^3H(N)]-estrone-3-sulfate, reference compound]	Km	703
N[C@@H](Cc1cc(I)c(Oc2cc(I)c(OC(=O)c3ccccc3O)c(I)c2)c(I)c1)C(=O)O [Prodrug 4]	Km	86
CC(C(=O)Oc1c(I)cc(Oc2c(I)cc(C[C@H](N)C(=O)O)cc2I)cc1I)c1cccc(C(=O)c2ccccc2)c1 (mixture of isomers) [Prodrug 2]	Km	123
N[C@@H](Cc1cc(I)c(OC(=O)c2ccccc2O)c(I)c1)C(=O)O [Prodrug 3]	Km	685
N[C@@H](Cc1cc(I)c(Oc2cc(I)c(O)c(I)c2)c(I)c1)C(=O)O [L-Thyroxine T4, L-thyroxine]	Km	1250

Request the reported Km associated with CC(C(=O)Oc1c(I)cc(C[C@H](N)C(=O)O)cc1I)c1ccc(-c2ccccc2)c(F)c1 (mixture of isomers) [Prodrug 7]
360

Try CC(C(=O)Oc1c(I)cc(Oc2c(I)cc(C[C@H](N)C(=O)O)cc2I)cc1I)c1ccc(-c2ccccc2)c(F)c1 (mixture of isomers) [Prodrug 8] next.
58

----------
Test: Enzymatic bioconversion in mouse liver S9 fraction
Format: in vitro ADME
Details: after 5 h incubation, 100 μM prodrug, 37 °C, mean ± SD, n = 3
Quantity Measured: Enzymatic stability, remaining percentage, mouse liver S9 (%)
Your answer is read as %, so omit the unit and give the number.

Examples with answers:
Compound	Value Units	Measured Result
CC(C(=O)Oc1c(I)cc(Oc2c(I)cc(C[C@H](N)C(=O)O)cc2I)cc1I)c1cccc(C(=O)c2ccccc2)c1 (mixture of isomers) [Prodrug 2]	%	87.59
CC(C(=O)Oc1c(I)cc(C[C@H](N)C(=O)O)cc1I)c1cccc(C(=O)c2ccccc2)c1 (mixture of isomers) [Prodrug 1]	%	74.30

Request the reported Enzymatic stability, remaining percentage, mouse liver S9 associated with N[C@@H](Cc1cc(I)c(OC(=O)c2ccccc2O)c(I)c1)C(=O)O [Prodrug 3]
99.06

Try CC(C(=O)Oc1c(I)cc(Oc2c(I)cc(C[C@H](N)C(=O)O)cc2I)cc1I)c1ccc(-c2ccccc2)c(F)c1 (mixture of isomers) [Prodrug 8] next.
84.32
